# ASSAYED_SYSTEM: Uracil nucleotide/cysteinyl leukotriene receptor (Homo sapiens)
# Sequence (Q13304 whole entry): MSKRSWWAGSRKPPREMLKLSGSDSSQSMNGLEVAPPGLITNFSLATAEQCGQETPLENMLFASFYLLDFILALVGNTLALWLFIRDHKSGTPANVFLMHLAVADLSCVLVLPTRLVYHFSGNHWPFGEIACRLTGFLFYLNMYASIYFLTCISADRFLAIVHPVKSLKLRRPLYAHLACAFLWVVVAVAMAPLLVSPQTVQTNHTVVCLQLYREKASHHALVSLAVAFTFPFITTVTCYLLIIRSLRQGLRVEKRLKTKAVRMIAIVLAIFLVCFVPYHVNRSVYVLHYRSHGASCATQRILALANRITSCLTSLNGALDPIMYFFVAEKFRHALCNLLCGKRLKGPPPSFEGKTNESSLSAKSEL
# ASSAY_OVERVIEW: Agonist activity at human GPR17 expressed in human 1321N1 cells assessed as induction of calcium mobilization after 1 hr by Oregon Green BAPTA-1/AM dye-based fluorescence assay relative to MDL 29,951
# Format: functional, cell-based
Output met for Emax not less than 80%; output not met otherwise.

{"columns": ["QUERY_SMILES", "LABEL_VALUE"],
 "data": [
  ["Cc1cc(C)c2c(CCC(=O)O)c(C(=O)O)[nH]c2c1", "not met"],
  ["O=C(O)CCc1c(C(=O)O)[nH]c2cc(F)cc(F)c12", "not met"],
  ["CCCCCOc1cc(Cl)c2c(CCC(=O)O)c(C(=O)O)[nH]c2c1", "met"],
  ["O=C(O)CCc1c(C(=O)O)[nH]c2cc(I)cc(F)c12", "met"],
  ["O=C(O)CCc1c(C(=O)O)[nH]c2cc(Oc3ccccc3)ccc12", "met"],
  ["O=C(O)CCc1c(C(=O)O)[nH]c2cc(-c3ccc(F)cc3)ccc12", "not met"],
  ["O=C(O)CCc1c(C(=O)O)[nH]c2cc(-c3ccco3)ccc12", "not met"],
  ["O=C(O)CCc1c(C(=O)O)[nH]c2cc(Cl)ccc12", "met"],
  ["O=C(O)CCc1c(C(=O)O)[nH]c2cc(Br)cc(F)c12", "met"],
  ["O=C(O)CCc1c(C(=O)O)[nH]c2cc(F)cc(I)c12", "met"],
  ["O=C(O)CCc1c(C(=O)O)[nH]c2c(F)c(-c3ccccc3)ccc12", "not met"]
]}
